Target: T1, serum resistance-associated protein (SRA) from Trypanosoma brucei rhodesiense, recombinant SRA (SEQ ID NO: … (Trypanosoma brucei rhodesiense, UniProt O96637 31-274))
T1 construct: also called SRA protein
T1 sequence: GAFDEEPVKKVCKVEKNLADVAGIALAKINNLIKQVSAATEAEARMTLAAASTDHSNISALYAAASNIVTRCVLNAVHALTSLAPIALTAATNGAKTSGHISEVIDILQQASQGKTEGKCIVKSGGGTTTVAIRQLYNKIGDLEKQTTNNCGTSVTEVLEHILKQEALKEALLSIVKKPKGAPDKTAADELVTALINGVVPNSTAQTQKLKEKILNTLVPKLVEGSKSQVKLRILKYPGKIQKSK
Assay: SPR, mAb captured, pH 4.5, 25C; competitor biotin-apoL1 peptide
I'd be grateful if you could share measured % Blocking, apoL1 peptide for these entries.
Enter your answer as a number in %; do not include the unit.

Which % Blocking, apoL1 peptide is reported for this binder? H1H10069P (antibody, V domains shown, Fully human antibody with human IgG1 Fc (prefix H1H)) VH: QVQLQESGPGLVKPSETLSLTCSVSGGSFTNYYWSWIRQPPGKGLEWIGSVFYSGTTNYNPSLQSRVTLSIETSKNQFSLRLNSVTAADTAVYYCARDQGAAALDYWGQGTLVTVSS VL: DIQMTQSPSTLSASVGDRLTITCRASQSINNWLAWYQQKPGKAPKLLIYKASNLESGVPSRFSGSGSGTEFTLTISNLQPDDFATYYCQQYNSFFLTFGGGTKVEIK
-13

Same for H1H10058P (antibody, V domains shown, Fully human antibody with human IgG1 Fc (prefix H1H)) VH: EVQLVESGGGLVQPGGSLRLSCAASGFTFNDFFMSWVRQAPGKGLEWVANLNQDGSERHYVDSVKGRFTISRDNAKNSLSLQMNSLRVEDTAVYYCAREGGDSWGQGTLVTVSS VL: DIVMTQSPDSLAVSLGERVTINCKSSQSILYSANNKDYLAWFHQKPGQPPKLLIYWASIRESGVPDRISGSGSGTDFTLTISSLQAEDVAVYYCQQYYLFPPTFGQGTKVEIK
4

Now try H2aM10204N (antibody, V domains shown, Chimeric antibody, human variable domains and mouse constant domains (mouse Fc, prefix H2aM); also called H2M10204N) VH: QVHLVQSGAEVKKPGSSVKVSCKASGGTFSNYAISWVRQAPGQGLEWMGGIIPFSGSATYAQNFQGRITITTDESTRTAYMELNGLRSEDTAVYYCARWFSGYGGDFDYWGQGTLVTVSS VL: AIQMTQSPSSLSASVGDRVTITCRASQDIKNDLGWYQQKPGKAPKLLIYAASTLQSGVPSRFSGSGSGTHFTLTLSSLQPEDFATYFCLQDYTFPRTFGQGTKVEIK .
98

Note, next up: H2bM10093N (antibody, V domains shown, Chimeric antibody, human variable domains and mouse constant domains; also called H2aM10093N; H2M10093N) VH: EVQLVESGGGLVKPGGSLRLSCVASGFTLSGYSMNWVRQAPGKGLEWVSSISTSSSYIYYADSVQGRFTISRDNAKNSLYLQMNSLRAEDTAVYYCVRKGANWIYFDYWGQGTLVTVSS VL: DIQMTQSPSSVSASVGDRVTITCRASQGISSLLAWFQQKPGKAPNLLIYAASSLQSGVPSRFSGSGSGTDFTLTISSLQPEDFATYYCQQAKSFPFTFGPGTKVDIK
97

Then what about the binder H1H10064P (antibody, V domains shown, Fully human antibody with human IgG1 Fc (prefix H1H)) VH: QVQLVQSGAEVKKPGSSVKVSCKASGGSFSSNVFSWVRQAPGQGLEWMGGIIPIFGSANYAQKFQGRVTITTDESTTTAYMELSSLRSEDTAVYYCAIGGTGPSGYNWNYGAFYIWGQGTMVTVSS VL: DIQMTQSPSSLSASVGDRVTITCRASQGIRNDLGWYQQKPGIAPKRLIYAASSLQSGVPSRFSGSGSGTEFTLTISSLQPEDFATYYCLQHNSYPYTFGQGTKLEIK ?
100
